These measurements were taken from PubChem BioAssay (NCI).

Tested on: SR leukemia
Test: NCI-60 one-dose screen, 48 h (100 = growth as untreated, 0 = no growth, -100 = all killed)
Applied Conditions: 10 µM unless noted
The panel holds about 83,000 compounds, 20% with a hit somewhere; the sample as a whole holds those more often. Calls of active or inactive are those of the source. How the source made its calls: active means growth percent below 10; inactive means the rest.
Experimental Readout: growth

{"columns": ["Chem Smiles", "Reported"],
 "data": [
  ["COc1ccc(-c2nc3ccc(-c4nnc(SCc5ccccc5)o4)cc3[nH]2)cc1OC", "56.3% (inactive)"]
]}

For the next question, use this molecule.
Given Cc1ccc(NC(=O)N/N=C/c2c[nH]c3ccccc23)c(C)c1 , state its recorded growth.
12.3% (inactive)
